system_name: human adenosine A2a receptor (Homo sapiens, UniProt P29274)
Sequence (P29274 whole entry): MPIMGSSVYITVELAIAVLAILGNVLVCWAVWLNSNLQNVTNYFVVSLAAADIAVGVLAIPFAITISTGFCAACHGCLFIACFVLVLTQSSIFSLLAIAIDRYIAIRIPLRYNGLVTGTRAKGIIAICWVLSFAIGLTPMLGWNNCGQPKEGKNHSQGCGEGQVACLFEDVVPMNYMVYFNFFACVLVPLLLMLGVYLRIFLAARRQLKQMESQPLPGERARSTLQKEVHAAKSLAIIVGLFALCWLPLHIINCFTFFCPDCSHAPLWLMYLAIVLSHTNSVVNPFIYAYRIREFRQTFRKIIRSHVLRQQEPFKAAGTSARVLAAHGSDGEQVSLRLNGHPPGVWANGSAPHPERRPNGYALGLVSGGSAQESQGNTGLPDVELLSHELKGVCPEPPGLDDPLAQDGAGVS
procedure_text: Adenosine A2a Receptor Functional Assay (A2AGAL2)
run_conditions: CHO-K1 cells overexpressing human A2a, cAMP inducible beta-galactosidase reporter, 15 nM NECA agonist challenge
pKi: −log10 of the molar value.
pKi below 8 gives not met; pKi at or above it gives met.

compound="N#Cc1cccc(-c2nc(N)c3cc(C(O)c4cccnc4N4CCCC4)sc3n2)c1 (stereo not drawn) [Example 14]" system_name="human adenosine A2a receptor (Homo sapiens, UniProt P29274)" class_assignment="not met"
compound="N#Cc1cccc(-c2nc(N)c3cc(C(O)c4ccccn4)sc3n2)c1 (stereo not drawn) [Example 15]" system_name="human adenosine A2a receptor (Homo sapiens, UniProt P29274)" class_assignment=met
compound="COc1cccnc1C(O)c1cc2c(N)nc(-c3cccc(C#N)c3)nc2s1 (stereo not drawn) [Example 33]" system_name="human adenosine A2a receptor (Homo sapiens, UniProt P29274)" class_assignment=met
compound="Nc1nc(-c2ccccc2)nc2sc(Cc3ccc(Cl)nc3)cc12 [Example 3]" system_name="human adenosine A2a receptor (Homo sapiens, UniProt P29274)" class_assignment="not met"
compound="N#Cc1cccc(-c2nc(N)c3cc(C(O)c4cccnc4F)sc3n2)c1 (stereo not drawn) [Example 29]" system_name="human adenosine A2a receptor (Homo sapiens, UniProt P29274)" class_assignment=met
compound="N#Cc1cccc(-c2nc(N)c3cc(CCc4ccccn4)sc3n2)c1 [Example 2]" system_name="human adenosine A2a receptor (Homo sapiens, UniProt P29274)" class_assignment="not met"
compound="N#Cc1cccc(-c2nc(N)c3cc(Cc4ncccc4F)sc3n2)c1 [Example 38]" system_name="human adenosine A2a receptor (Homo sapiens, UniProt P29274)" class_assignment=met
